System: Rattus norvegicus
Test: Anti-inflammatory activity in Rattus norvegicus Wistar albino (rat) assessed as inhibition of carrageenan-induced paw edema after 30 min (reference value: 30.1%)
Assay type: functional
So basically: inhibition (INH) at 20% or higher? That is Criterion met. Lower than 20%? That is Criterion not met.

1. COC(=O)c1c(C)nn(-c2ccccc2)c1OCCCOc1c(C(=O)OC)c(C)nn1-c1ccccc1 :: Criterion not met
2. CS(=O)(=O)Nc1ccc([N+](=O)[O-])cc1Oc1ccccc1 [NIMESULIDE] :: Criterion not met
3. COC(=O)c1c(C)nn(-c2ccccc2)c1OCCCn1c(C)cc(C)c(C#N)c1=O :: Criterion not met
4. CCOC(=O)c1c(C)nn(-c2ccccc2)c1OCCCOc1nc(C)cc(C)c1C#N :: Criterion met
5. CCOC(=O)c1c(C)nn(-c2ccccc2)c1OCCCN1C(=O)c2ccccc2C1=O :: Criterion met

Cited source: ChEMBL document CHEMBL3044719
